- target_entity: mouse HRt (hairless protein aa 490-1182) (Mus musculus)
- Construct: HR cDNA corresponding to the C-terminal half of HR protein (aa residues 490 to 1182, hereinafter HRt); expressed in transfected cells; host or cells: Saccharomyces cerevisiae PJ69-2A transformed with BD-HRt plasmid, mated with Y187 carrying the human brain cDNA library in pACT2
- Sequence (Q61645 490-1182): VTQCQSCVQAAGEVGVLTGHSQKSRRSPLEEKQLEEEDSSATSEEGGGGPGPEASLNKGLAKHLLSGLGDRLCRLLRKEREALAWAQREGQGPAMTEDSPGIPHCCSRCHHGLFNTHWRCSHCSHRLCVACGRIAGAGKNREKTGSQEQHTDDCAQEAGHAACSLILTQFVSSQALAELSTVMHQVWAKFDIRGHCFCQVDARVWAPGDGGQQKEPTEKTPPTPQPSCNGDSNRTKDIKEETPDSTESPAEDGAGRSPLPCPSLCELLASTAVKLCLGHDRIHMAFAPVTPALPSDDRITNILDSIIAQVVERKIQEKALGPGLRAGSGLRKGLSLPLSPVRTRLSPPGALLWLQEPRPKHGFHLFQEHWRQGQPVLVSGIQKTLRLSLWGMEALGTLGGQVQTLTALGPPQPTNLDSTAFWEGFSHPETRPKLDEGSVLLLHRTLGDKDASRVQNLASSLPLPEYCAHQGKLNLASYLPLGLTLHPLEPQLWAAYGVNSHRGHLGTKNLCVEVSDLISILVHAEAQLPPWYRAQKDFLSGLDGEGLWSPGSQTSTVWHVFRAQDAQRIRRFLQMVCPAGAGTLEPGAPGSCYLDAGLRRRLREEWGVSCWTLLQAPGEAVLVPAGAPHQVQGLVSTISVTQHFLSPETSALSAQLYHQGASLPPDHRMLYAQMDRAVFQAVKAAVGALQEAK
- test: Yeast two-hybrid screen of BD-HRt against human brain cDNA library in AD vector, lacZ coloration on QDO-Xgal plates
- Format: cell-based
- cond: BD-HRt(mouse) x human brain cDNA library in AD-vector
result_type: XGAL (rate and intensity of coloration of colonies on Xgal)

• Human ubiquitin: human HRt interacting partner, GenBank AR075562, SEQ ID NO:70/71 (EKFAPKKQGDGGKDLPTEAKKRAAEFCRGALC; listed as Homo sapiens) = L/VL
